Test system: SW480 cells
Assay: Resazurin cytotoxic assay, tumoral SW480
Type: cell-based, human
Details: SW480 primary tumor cells, 48 h, mean ± SD
Procedure: CRL1790, SW480 and SW620 cell lines were purchased from American Type Culture Collection (ATCC). […] Cytotoxic activity was screened using Resazurin Fluorimetric Assay (R7017, Merck, Darmstadt, Germany), according to the manufacturer’s protocol. […] Fluorescence was determined using Nanoquant Infinite M200 Pro multi-plate reader (Tecan). Half-maximal inhibitory concentration (IC50) values were determined in triplicate by non-linear regression with Graphpad (Prism). […]
Parameter: IC50 (µM)
Numbers only here, please. The scale is µM.

Form: item O=C(O)c1cc(O)c(O)c(O)c1 [Gallic acid, 3,4,5-trihydroxybenzoic acid] ; test system SW480 cells; IC50: 22.4

* * *

Biological target: 5′ETS G4
Experiment: UV-vis titration, 5′ETS G4
Conditions: UV-vis titration at 265 nm, 5′ETS G4, 25 °C, pH 7.0; read-out: dissociation constant (Kd)
Parameter: Kd (µM)
Numbers only here, please. The scale is µM.

Measured Kd, O=C(O)c1cc(O)c(O)c(O)c1 [Gallic acid, 3,4,5-trihydroxybenzoic acid] : 148

* * *

Tested on: SW620 cells
Experiment: Resazurin cytotoxic assay, metastatic SW620
Type: cell-based, human
Details: Homo sapiens, SW-620, 48 h, mean ± SD
Entries annotated with measured IC50

| Molecule | IC50 |
| --- | --- |
| Oc1ccc(/C=C/c2cc(O)cc(O)c2)cc1 | > 100 µM |
| OCCc1ccc(O)c(O)c1 [Hydroxytyrosol, hydroxytyrosol] | 71.9 µM |
| OC[C@H]1O[C@@H](Oc2cc(O)cc(/C=C/c3ccc(O)cc3)c2)[C@H](O)[C@@H](O)[C@@H]1O | > 100 µM |

Lab note: next molecule to report on.
Measured IC50, "OCCc1ccc(O)cc1" : > 100 µM

Measured values drawn from paper PMC9179882 for this set.
